- SYSTEM_TESTED: cathepsin B (CatB) (Homo sapiens, UniProt P07858)
PROPERTY: Ki (µM)
Give bare numbers, in µM.

// query I would be grateful if you could share the reported Ki for CC(C)CC(NC(=O)C=Cc1ccccc1)C(=O)NC(C=C[N+](=O)[O-])CC1CCNC1=O (stereo not shown) [FGA145] .
// result 0.206

* * *

- SYSTEM_TESTED: UniProt:P0DTD1
- EXPERIMENTAL_PROTOCOL: Binding to M^pro by ITC
- EXPERIMENTAL_CONTEXT: ITC; 25 °C
PROPERTY: pKd
Give bare numbers, as −log10 of the molar value.

// query State its pKd on UniProt:P0DTD1: CC(C)C[C@H](NC(=O)OCc1ccccc1)C(=O)N[C@H](/C=C/[N+](=O)[O-])C[C@@H]1CCNC1=O
// result 5.54
